- Run description: Plasma pharmacokinetics of RPM constituents after oral RPM extract
- Measurement parameters: Sprague-Dawley, rat, plasma, po, 6 g/kg
Measured metric: Tmax

{"Compound": "OC[C@H]1O[C@@H](Oc2c(O)cc(O)cc2/C=C/c2ccc(O)cc2)[C@H](O)[C@@H](O)[C@@H]1O", "Measured metric": "Tmax", "Result": "14.4 min"}
{"Compound": "COc1cc(O[C@@H]2O[C@H](CO)[C@@H](O)[C@H](O)[C@H]2O)c2c(O)c(C(C)=O)c(C)cc2c1 [TG, torachrysone-8-O-glucoside]", "Measured metric": "Tmax", "Result": "11.4 min"}
{"Compound": "COc1cc(O[C@@H]2O[C@H](CO)[C@@H](O)[C@H](O)[C@H]2O)c2c(c1)C(=O)c1cc(C)cc(O)c1C2=O [PG, physcion-8-O-β-D-glucoside]", "Measured metric": "Tmax", "Result": "17.4 min"}
{"Compound": "Cc1cc(O)c2c(c1)C(=O)c1cc(O)cc(O)c1C2=O", "Measured metric": "Tmax", "Result": "7.2 min"}
{"Compound": "O=C1c2cccc(O)c2C(=O)c2c(O)cc(CO)cc21", "Measured metric": "Tmax", "Result": "17.4 min"}
{"Compound": "COc1cc(O)cc2c1C(=O)c1c(O)cc(CO)cc1C2=O", "Measured metric": "Tmax", "Result": "210 min"}
{"Compound": "Cc1cc(O)c2c(c1)C(=O)c1cccc(O)c1C2=O", "Measured metric": "Tmax", "Result": "61.8 min"}

###

- Run description: Dose-exposure relationship (power function model with confidence interval method)
- Measurement parameters: log AUC0-∞ vs log p.o. dose of RPM extract; critical interval 0.88–1.12
Measured metric: Slope (90%CI)

{"Compound": "O=C1c2cccc(O)c2C(=O)c2c(O)cc(CO)cc21 [Aloe-emodin, aloe-emodin]", "Measured metric": "Slope (90%CI)", "Result": "0.582 (0.278–0.885)"}
{"Compound": "COc1cc(O[C@@H]2O[C@H](CO)[C@@H](O)[C@H](O)[C@H]2O)c2c(O)c(C(C)=O)c(C)cc2c1 [TG, torachrysone-8-O-glucoside]", "Measured metric": "Slope (90%CI)", "Result": "0.720 (0.464–0.977)"}
{"Compound": "Cc1cc(O)c2c(c1)C(=O)c1cc(O)cc(O)c1C2=O [Emodin, emodin]", "Measured metric": "Slope (90%CI)", "Result": "0.466 (0.290–0.642)"}
{"Compound": "COc1cc(O[C@@H]2O[C@H](CO)[C@@H](O)[C@H](O)[C@H]2O)c2c(c1)C(=O)c1cc(C)cc(O)c1C2=O [PG, physcion-8-O-β-D-glucoside]", "Measured metric": "Slope (90%CI)", "Result": "0.429 (0.326–0.532)"}
{"Compound": "COc1cc(O)cc2c1C(=O)c1c(O)cc(CO)cc1C2=O [Questinol, questinol]", "Measured metric": "Slope (90%CI)", "Result": "0.551 (0.275–0.827)"}
{"Compound": "OC[C@H]1O[C@@H](Oc2c(O)cc(O)cc2/C=C/c2ccc(O)cc2)[C@H](O)[C@@H](O)[C@@H]1O [TSG]", "Measured metric": "Slope (90%CI)", "Result": "0.342 (0.204–0.479)"}

Source listed as paper PMC8899820.
